From: a melting point compilation (Tetko et al.; mined from patent text by program, amines drawn as free bases though some values may be those of a salt)

reported_property: melting point

// below: answered compounds
| compound | value_reported |
| --- | --- |
| Cc1cccc(C)c1N1CC(=N)N(c2c(C)cccc2C)C1C(=O)c1ccc(Cl)cc1 (centres undefined) | 155 to 156 °C |
| COc1cc(C=CC(=O)c2ccc(O)c(OC)c2)ccc1O | 111 to 114 °C |
| CC(=Nc1ccc(NC(=O)CN)cc1)N(C)C | 142 to 145 °C |

Shifting focus to the compound that follows.
Q: What melting point value was documented for this compound, C1=CC2=c3ccccc3=NC2=C1 ?
Result: 143 to 145 °C

----------
reported_property: melting point

// below: answered molecules
| molecule | melting point |
| --- | --- |
| CCCCOCCOc1ccc(-c2ccc3c(c2)C=C(C(=O)Nc2ccc(SCc4nccn4CCCC(N)=O)cc2)CCN3CC(C)C)cc1 | 142 to 143 °C |
| Cc1ccc(C)c(N2C(=O)CON(C)C2=S)c1 | 104 to 106 °C |
| O=C(c1ccn2c1CSC2c1cccnc1)c1c[nH]c2cc(Br)ccc12 (configuration not stated) | 265 °C |
| Cc1cc(Oc2ccccc2)nc2ccccc12 | 101 °C |

For the 3 molecules below, give their melting point values.
1. CCOC(=O)CCCCc1oc(-n2ccnc2C)nc1-c1ccc(Cl)cc1
2. COC(=O)C(C)(C)CCCOc1cc(C)c([N+](=O)[O-])cc1C
3. c1ccc2c(c1)Cc1ccccc1N1CCCN=C21

Result:
1: 93 to 94 °C; 2: 73 to 75 °C; 3: 139 to 141 °C

----------
reported_property: melting point

// below: answered molecules
| molecule | melting point |
| --- | --- |
| CN(C)CC1CCc2cc(OCc3ccc(NC(=O)c4ccccc4)cc3)ccc2C1 (stereo not given) | 128 to 133 °C |
| CCC(CC)N(O)C(=O)NCCCC(C)CNC(=O)N(O)C(CC)CC (stereo not given) | 124 to 125 °C |
| O=c1ccn([C@@H]2C[C@H](O)[C@@H](O)[C@H]2O)cc1 (racemic) | 186 to 188 °C |
| Cc1nn(C(=O)NCC2CC2(Cl)Cl)c(=O)n1N (stereo not given) | 149 °C |
| C#Cc1ccc(OC)c(OCC)c1 | 95 to 96 °C |

For the 3 molecules below, give their melting point values.
1. O=CN(c1cc(Cl)cc(Cl)c1)c1cc(S(=O)(=O)NC(c2ccccc2)c2ccccc2)ccc1Cl
2. COc1c(CC(=O)O)cccc1Oc1ccccc1C
3. O=c1c2cccc(O)c2nc(-c2ccc(OCCN3CCCCC3)cc2)n1-c1ccc(O)cc1

Result:
["196 to 198 °C", "90 to 92 °C", "153 to 155 °C"]

For the 4 molecules below, give their melting point values.
1. CCn1nc(C(C)(C)C)c2c1C(=O)NCC(c1ccc(O)cc1)=N2
2. C[C@@H](c1ccc(-c2[nH]nnc2Cl)cc1)[C@](O)(Cn1cncn1)c1ccc(F)cc1F
3. CCCCOCCOc1ccc(-c2ccc3c(c2)C=C(C(=O)Nc2ccc(CC(=O)c4nccn4CCC)cc2)CCN3CC(C)C)cc1
4. CSC1C=C2C=CC=CN2N1[N+](=O)[O-] (stereo not given)

Result:
1. 264 °C
2. 113 to 115 °C
3. 136 to 138 °C
4. 225 °C

For the 4 molecules below, give their melting point values.
1. CN(C(=O)OC(C)(C)C)[C@H](Cc1ccc(Cl)c(Cl)c1)[C@H](O)CC(=O)N[C@@H]1CCCCNC1=O
2. CC1(c2ccccc2)OC(=O)C(Cl)(Cl)C(C(Cl)(Cl)Cl)N1OC(=O)Nc1ccccc1 (stereo not given)
3. CCC(N)C(=O)Nc1c(C)cccc1C (stereo not given)
4. COc1ccc(C2(CCN3CCC(C(O)(c4ccccc4)c4ccccc4)CC3)CCN(C(=O)c3cc(OC)c(OC)c(OC)c3)C2)cc1OC (stereo not given)

Result:
1: 187 °C; 2: 154 to 157 °C; 3: 48 to 49 °C; 4: 95 to 97 °C

For the 7 molecules below, give their melting point values.
1. Cc1ccc(C)n1CCN1CCCC1=O
2. CC1(c2cccc3c2CCc2ccccc2C3=O)OCCO1
3. CC1(C)CC=C(S(=O)(=O)c2ccccc2)CC1
4. CCCCCN(C(=O)OC(C)(C)C)c1nc(N(C)Cc2ccccc2)c2ncn(CC(=O)O)c2n1
5. COc1cc(N)c(Cl)cc1C(=O)NCC1CCN(CCCCCOCc2ccc(Cl)cc2)CC1
6. COc1ccc(-c2n[nH]c3c2C(O)c2ccccc2-3)cc1OC (stereo not given)
7. CC(O)(CNC(=S)Nc1ccc(Br)cc1)C(=O)Nc1ccc([N+](=O)[O-])c(C(F)(F)F)c1 (stereo not given)

Result:
["66 to 68 °C", "144 to 145 °C", "51 to 53 °C", "116 to 127 °C", "131 to 132 °C", "197 to 199 °C", "192 to 195 °C"]
